# Test Protocol: stimulators of nuclear beta-catenin in C2C12, primary screen, imaging, WNT3A-conditioned medium, mouse C2C12, NPC library (AID 1117326); further: reference of the scale not given here
# Condition Details: stimulation, at 2 µM, stronger effect = higher value
Entries and their nuclear beta-catenin stimulation

[
  {
    "Molecule": "NC(=O)C(=O)N/N=C/c1ccc([N+](=O)[O-])o1",
    "nuclear beta-catenin stimulation (%)": 1.5
  },
  {
    "Molecule": "CCCOc1ccc2c(c1)CC[C@@H]1[C@@H]2CC[C@]2(C)C(OC)CC[C@@H]12 (some centres not stated)",
    "nuclear beta-catenin stimulation (%)": 0
  },
  {
    "Molecule": "COc1ccccc1N1CCN(CC(O)COc2cc(OC)c(OC)c(OC)c2)CC1 (configuration not stated)",
    "nuclear beta-catenin stimulation (%)": 0.4
  },
  {
    "Molecule": "CC(=O)OCC(=O)[C@@]1(O)CC[C@H]2[C@@H]3CCC4=CC(=O)C=C[C@]4(C)[C@H]3[C@@H](O)C[C@@]21C",
    "nuclear beta-catenin stimulation (%)": 0
  },
  {
    "Molecule": "CCCCC/C=C\\C/C=C\\CCCCCCCC(=O)NC(C)c1ccccc1 (configuration not stated)",
    "nuclear beta-catenin stimulation (%)": 2.1
  },
  {
    "Molecule": "CCCCCCCCCCCC(=O)OCC(O)CO (configuration not stated)",
    "nuclear beta-catenin stimulation (%)": 2.9
  },
  {
    "Molecule": "CO/N=C(/C(=O)N[C@@H]1C(=O)N2C(C(=O)O)=C(Cn3nnc(C)n3)CS[C@H]12)c1csc(N)n1",
    "nuclear beta-catenin stimulation (%)": -1
  },
  {
    "Molecule": "O=P(O)(O)C(O)(Cc1cnc2ccccn12)P(=O)(O)O",
    "nuclear beta-catenin stimulation (%)": 1.4
  },
  {
    "Molecule": "CC(C)NC(=O)c1ccc(C=O)cc1",
    "nuclear beta-catenin stimulation (%)": -0.8
  },
  {
    "Molecule": "CCOC(=O)COc1ccc2c(C)c(CCN(CC)CC)c(=O)oc2c1Cl",
    "nuclear beta-catenin stimulation (%)": -0.4
  },
  {
    "Molecule": "Cc1cccc(N(C)C(=S)Oc2ccc3c(c2)CCC3)c1",
    "nuclear beta-catenin stimulation (%)": -1.8
  },
  {
    "Molecule": "CCC1(c2ccccc2)C(=O)NCNC1=O",
    "nuclear beta-catenin stimulation (%)": 1.4
  },
  {
    "Molecule": "C[C@@H]1CCC[C@H](C)N1CCCC(O)(c1ccccc1)c1ccccn1 (some centres not stated)",
    "nuclear beta-catenin stimulation (%)": 0
  },
  {
    "Molecule": "CC[N+](CC)(CC)CCOC(=O)C(C1CCCC1)C1CCCC1",
    "nuclear beta-catenin stimulation (%)": 2
  },
  {
    "Molecule": "Oc1cn2c(n1)Nc1ccc(Cl)c(Cl)c1C2",
    "nuclear beta-catenin stimulation (%)": 2.5
  },
  {
    "Molecule": "O=[N+]([O-])c1ccc(Oc2ccc(N=C=S)cc2)cc1",
    "nuclear beta-catenin stimulation (%)": 1.6
  },
  {
    "Molecule": "Nc1cc(C(F)(F)F)ccc1S",
    "nuclear beta-catenin stimulation (%)": -0.9
  },
  {
    "Molecule": "CC12CC3CC(C)(C1)CC(N)(C3)C2",
    "nuclear beta-catenin stimulation (%)": 1
  },
  {
    "Molecule": "CC(C)(C)C(=O)NCCCC(=O)O",
    "nuclear beta-catenin stimulation (%)": 2.4
  },
  {
    "Molecule": "O=C1NC2CCCCN2C12CCN(CCCN1c3ccccc3CCc3ccc(Cl)cc31)CC2 (configuration not stated)",
    "nuclear beta-catenin stimulation (%)": 0.1
  },
  {
    "Molecule": "Cc1cccc(N(C)C(=S)Oc2ccc3c(c2)C2CCC3C2)c1 (configuration not stated)",
    "nuclear beta-catenin stimulation (%)": 0.6
  },
  {
    "Molecule": "CCC(=C(CC)c1ccc(OP(=O)(O)O)cc1)c1ccc(OP(=O)(O)O)cc1",
    "nuclear beta-catenin stimulation (%)": 1.7
  },
  {
    "Molecule": "COc1ccc(C(=O)N2CCN(CC(=O)N3CCOCC3)CC2)cc1",
    "nuclear beta-catenin stimulation (%)": 5.2
  },
  {
    "Molecule": "CC[C@@]1(c2ccccc2)NC(=O)N(C)C1=O",
    "nuclear beta-catenin stimulation (%)": 0.6
  },
  {
    "Molecule": "CC1(C)S[C@@H]2[C@H](NC(=O)C(c3ccccc3)S(=O)(=O)O)C(=O)N2[C@H]1C(=O)O (some centres not stated)",
    "nuclear beta-catenin stimulation (%)": 1.4
  },
  {
    "Molecule": "Cc1onc(-c2c(Cl)cccc2Cl)c1C(=O)N[C@@H]1C(=O)N2[C@@H]1SC(C)(C)[C@@H]2C(=O)O",
    "nuclear beta-catenin stimulation (%)": 1.3
  },
  {
    "Molecule": "CCCCCCCCCCC(CO)CCCCCCCC (configuration not stated)",
    "nuclear beta-catenin stimulation (%)": -0.4
  },
  {
    "Molecule": "CCN(CC)CCOC(=O)C1(C2CCCCC2)CCCCC1",
    "nuclear beta-catenin stimulation (%)": 1.1
  },
  {
    "Molecule": "NS(=O)(=O)c1cc(-c2nn[nH]n2)c(NCc2cccs2)cc1Cl",
    "nuclear beta-catenin stimulation (%)": -0.1
  },
  {
    "Molecule": "NC(=O)CC[C@@H]1NC(=O)[C@H](Cc2ccccc2)NC(=O)[C@H](Cc2ccc(O)cc2)NC(=O)CCSSC[C@@H](C(=O)N2CCC[C@H]2C(=O)N[C@@H](CCCN=C(N)N)C(=O)NCC(N)=O)NC(=O)[C@H](CC(N)=O)NC1=O",
    "nuclear beta-catenin stimulation (%)": -1.2
  },
  {
    "Molecule": "CN(C)CCOc1ccccc1Cc1ccccc1",
    "nuclear beta-catenin stimulation (%)": 2.3
  },
  {
    "Molecule": "CC(C)(C)CC(=O)OCC(=O)[C@@]1(O)CC[C@H]2[C@@H]3CCC4=CC(=O)C=C[C@]4(C)[C@H]3[C@@H](O)C[C@@]21C",
    "nuclear beta-catenin stimulation (%)": 0.9
  },
  {
    "Molecule": "Nc1ccc([N+](=O)[O-])c(C(F)(F)F)c1",
    "nuclear beta-catenin stimulation (%)": -1
  },
  {
    "Molecule": "O=C(OCC1(COC(=O)c2cccnc2)CCCC(COC(=O)c2cccnc2)(COC(=O)c2cccnc2)C1O)c1cccnc1",
    "nuclear beta-catenin stimulation (%)": -0.2
  },
  {
    "Molecule": "O=C1c2c(O)ccc(O)c2C(=O)c2c(NCCNCCO)ccc(NCCNCCO)c21",
    "nuclear beta-catenin stimulation (%)": 14.4
  },
  {
    "Molecule": "CCCCC/C(C=O)=C\\c1ccccc1",
    "nuclear beta-catenin stimulation (%)": 4.5
  },
  {
    "Molecule": "CCOc1ccc(C(=O)OCCN(CC)CC)cc1",
    "nuclear beta-catenin stimulation (%)": -1.4
  },
  {
    "Molecule": "CO/N=C(/C(=O)N[C@@H]1C(=O)N2C(C(=O)OCOC(=O)C(C)(C)C)=C(C)CS[C@H]12)c1csc(N)n1",
    "nuclear beta-catenin stimulation (%)": -2
  },
  {
    "Molecule": "O=C(c1ccccc1)C(O)c1ccccc1 (configuration not stated)",
    "nuclear beta-catenin stimulation (%)": 0.8
  },
  {
    "Molecule": "CCOC(=O)C(=O)c1csc(NC=O)n1",
    "nuclear beta-catenin stimulation (%)": -0.8
  },
  {
    "Molecule": "CN=C(N)NC(=O)Nc1c(C)cccc1C",
    "nuclear beta-catenin stimulation (%)": -0.4
  },
  {
    "Molecule": "NCC[C@H](O)C(=O)N[C@@H]1C[C@H](N)[C@@H](O[C@H]2O[C@H](CN)[C@@H](O)[C@H](O)[C@@H]2O)[C@H](O)[C@@H]1O[C@H]1O[C@H](CO)[C@@H](O)[C@H](N)[C@@H]1O",
    "nuclear beta-catenin stimulation (%)": -1.1
  }
]

====

# Test Protocol: LFS_MB_P medulloblastoma growth inhibition, cell-based, chromothripsis tumors, cisplatin or BGB combos (AID 1671449);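 further: cells exposed for 96 hours; 0% = vehicle DMSO and 100% = killing by high DMSO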
# Condition Details: LFS_MB_P medulloblastoma cells, measured here: combination with BGB IC40, at 0.05 µM
Measurement Kind: inhibition (%)

[
  {
    "Compound": "O=C(O)CCCc1ccccc1",
    "Unit Info": "%",
    "Experimental Result": -22.2
  },
  {
    "Compound": "O=C1c2c(O)ccc(O)c2C(=O)c2c(NCCNCCO)ccc(NCCNCCO)c21",
    "Unit Info": "%",
    "Experimental Result": -28
  },
  {
    "Compound": "CCN(CC)CCCC(C)Nc1c2ccc(Cl)cc2nc2ccc(OC)cc12 (stereo not given)",
    "Unit Info": "%",
    "Experimental Result": 6.94
  },
  {
    "Compound": "O=c1[nH]cc(F)c(=O)[nH]1",
    "Unit Info": "%",
    "Experimental Result": -17
  },
  {
    "Compound": "CCn1cc(C(=O)O)c(=O)c2cc(F)c(N3CCNCC3)cc21",
    "Unit Info": "%",
    "Experimental Result": -0.516
  }
]
